Data origin: the supplement of paper PMC11281043

Measured max % larvae of individual entries
tested on: Danio rerio embryo/larva; experiment: max % larvae with blood pooling across tested concentrations; higher = more toxic; extreme values may be limits of the assay; conditions: exposure: 6-8 hpf to 5 dpf, scored at 6 dpf
Report the value in % with no unit label.

Look over these answered cases.
molecule	observed.measurement
Cc1ccc(S(=O)(=O)OCC(F)(F)C(F)(F)C(F)(F)C(F)(F)C(F)(F)C(F)F)cc1 [1H,1H,7H-Perfluoroheptyl 4-methylbenzenesulfonate] (max tested concentration (log10 uM): 2)	0
O=C(Cl)C(F)(F)C(F)(F)C(F)(F)C(F)(F)C(F)(F)C(F)(F)C(F)(F)F [Pentadecafluorooctanoyl chloride] (max tested concentration (log10 uM): 2)	16.7

Okay, next one:
Task: # max % larvae lookup, item OCC(F)(F)C(F)(F)C(F)(F)C(F)(F)C(F)(F)C(F)(F)C(F)(F)C(F)(F)C(F)(F)C(F)(F)C(F)(F)F [11:1 Fluorotelomer alcohol] (max tested concentration (log10 uM): 1.30103)
Result: 0
